Reference source: patent EP4471049A1

STUDY SYSTEM: T1, human IL-23R endogenously expressed on DB cells (human, UniProt Q5VWK5 24-629)
T1 sequence (looked up): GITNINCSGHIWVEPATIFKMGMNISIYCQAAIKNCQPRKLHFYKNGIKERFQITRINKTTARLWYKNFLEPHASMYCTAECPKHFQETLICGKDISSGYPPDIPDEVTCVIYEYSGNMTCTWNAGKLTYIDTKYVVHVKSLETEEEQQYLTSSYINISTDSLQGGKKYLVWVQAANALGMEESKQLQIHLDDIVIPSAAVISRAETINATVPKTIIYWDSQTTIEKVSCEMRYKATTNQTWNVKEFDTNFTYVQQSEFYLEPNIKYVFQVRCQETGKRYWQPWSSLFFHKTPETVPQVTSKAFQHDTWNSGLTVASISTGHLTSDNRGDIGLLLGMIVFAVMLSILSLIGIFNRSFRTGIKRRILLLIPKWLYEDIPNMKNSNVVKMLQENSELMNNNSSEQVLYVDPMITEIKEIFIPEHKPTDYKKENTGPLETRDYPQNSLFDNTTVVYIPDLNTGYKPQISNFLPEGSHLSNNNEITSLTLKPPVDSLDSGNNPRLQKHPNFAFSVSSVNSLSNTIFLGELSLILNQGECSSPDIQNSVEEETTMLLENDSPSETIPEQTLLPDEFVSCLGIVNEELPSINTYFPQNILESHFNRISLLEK
ASSAY COMMENT: cell-based or functional assay
*1 amine or outer side, *2 acyl side, *3 side chain or, on linkers, in order; H or OH if unused. Bridges are numbered along the chain shown (N, C = ends). [ ]: non-standard residue; d: D form. 4‑Aminomethyl‑phenylacetyl = 4-aminomethyl-phenylacetyl unit, its amine closes the lactam, O=C(Cc1ccc(CN[*:1])cc1)[*:2]; 2Nal = N[C@@H](Cc1ccc2ccccc2c1)C(=O)O; AEF = NCCOc1ccc(C[C@H](N)C(=O)O)cc1; 3Pal = N[C@@H](Cc1cccnc1)C(=O)O; αMeL = CC(C)C[C@](C)(N)C(=O)O; 3Amb = NCc1cccc(C(=O)O)c1; Dab = NCC[C@H](N)C(=O)O
MEASURED ATTRIBUTE: hIL-23 (pSTAT3) antagonist % inhibition (%)

[3Amb]SCWQCW[2Nal]LER-NH2 (lactam N-10; bridge 3-6; not fully specified (bridges); printed as [(3-Aminomethyl)benzoyl](1c)*SC(2a)WQC(2a)W[2-Nal]LE(1c)R-[NH2]) [Ref 37] :: 89
[4‑Aminomethyl‑phenylacetyl]SCWQC[AEF][2Nal][αMeL]E[Dab][3Pal]-NH2 (lactam N-10; bridge 3-6; not fully specified (bridges); printed as [4-Aminomethyl-phenylacetyl](1c)*SC(2a)WQC(2a)[Y(2-aminoethoxy)][2-Nal][2-Me-Leu]E(1c)[Dab][3-(3-Pyridyl)-Ala]-[NH2]) [Ref 120] :: 101
H-GCTCWECWWLCS-NH2 (bridge 4-7, 2-11; not fully specified (bridges), compound from Heinis et al., 2020, synthesised for comparison) [I1 (isomer 3)] :: 83
